// data source = patent US4849424A

Assay: Oral acute toxicity (LD50) in rats
Conditions: rat, in vivo, 0.3% CMC-Na suspension, 72 hours observation, 10 rats per group, Probit method
Measured Endpoint: LD50 at 72 h (mg/kg)
Answer in mg/kg, number only, no unit symbol.

*Q* Param item = COc1cc(-n2ccnc2)ncn1 ; retrieve measured LD50 at 72 h.
*A* 400
